- Test system: OPM2 cells
- PROTOCOL SUMMARY: Cell proliferation assay (ViaLight, cellular ATP)
- Assay type: cell-based
- CONDITION: Homo sapiens, OPM-2, 120 h, 5 days, 5 μM to 1 nM
MEASUREMENT NAME: GI50

Look over these answered cases.
CC(=O)N1c2ccc(-c3ccc(C(=O)N4CCN(Cc5cc6nc(-c7cnc(N)nc7)nc(N7CCOCC7)c6s5)CC4)cc3)cc2CC[C@@H]1C ... 100 to 500 nM
CC(=O)N1c2ccc(-c3ccc(CN4CCN(Cc5cc6nc(-c7cnc(N)nc7)nc(N7CCOCC7)c6s5)CC4)cc3)cc2CC[C@@H]1C ... 100 to 500 nM
CC(=O)N1c2ccc(-c3ccc(CNC(=O)c4cn5cc(-c6cnc(N)nc6)nc(N6CCNCC6)c5n4)cc3)cc2CC[C@@H]1C.Cl [Cpd 035, hydrochloride] ... ≤ 100 nM
CC(=O)N1c2ccc(-c3cnn(C4CCN(Cc5sc6c(N7CCOCC7)nc(-c7cnc(N)nc7)nc6c5C)CC4)c3)cc2CC[C@@H]1C ... > 500 nM
CC(=O)N1c2ccc(-c3ccc(C(=O)NCc4cc5nc(-c6cnc(N)nc6)nc(N6CCOCC6)c5s4)cc3)cc2CC[C@@H]1C ... ≤ 100 nM

Consider now this further compound.
Query :: Sample CC(=O)N1c2ccc(-c3ccc(CNC(=O)c4sc5c(N6CCOCC6)nc(-c6cnc(N)nc6)nc5c4C)cc3)cc2CC[C@@H]1C — what was its GI50?
Result :: ≤ 100 nM

Reference source for all entries: patent US20230312577A1
